# TARGET OR SYSTEM: human inducible NO-synthase (Homo sapiens, UniProt P35228)
# RUN DESCRIPTION: Measurement of inducible NO-synthase activity ([3H]arginine conversion, crude cytosolic fraction)
# Type: biochemical
# SETTINGS: 0.1 μM arginine, 45 to 60 min at 37° C., pH 7.2; read-out: Inhibition of iNOS activity [measured as −logIC50 (mol/l)] (converted)
Parameter IC50: see the listing below.
Note: unit nM is implicit; provide only the numeric part.

Solved entries (count: 3):
COMPOUND	TARGET OR SYSTEM	REPORTED ENDPOINT	OBSERVED MEASUREMENT
COc1ccnc(CCc2nc3cc(-c4ccc(S(=O)(=O)Nc5ccccc5OC)cc4)cnc3[nH]2)c1 [Compound 26]	human inducible NO-synthase (Homo sapiens, UniProt P35228)	IC50	34.7
COc1ccnc(CCc2nc3cc(-c4ccc(S(=O)(=O)N5CCN(C)CC5)cc4)cnc3[nH]2)c1 [Compound 1]	human inducible NO-synthase (Homo sapiens, UniProt P35228)	IC50	19.5
COc1ccnc(CCc2nc3cc(-c4ccc(S(=O)(=O)N5CCN(C(C)=O)CC5)cc4)cnc3[nH]2)c1 [Compound 9]	human inducible NO-synthase (Homo sapiens, UniProt P35228)	IC50	29.5

COc1ccnc(CCc2nc3cc(-c4ccc(S(=O)(=O)N5CCC(C)CC5)cc4)cnc3[nH]2)c1 [Compound 12] tested on human inducible NO-synthase (Homo sapiens, UniProt P35228) gave IC50: 25.1

Tested on human inducible NO-synthase (Homo sapiens, UniProt P35228), the item COc1ccnc(CCc2nc3cc(-c4ccc(S(=O)(=O)Nc5ccc(N(C)C)cc5)cc4)cnc3[nH]2)c1 [Compound 27] showed IC50 equal to 45.7

Lab note: compound COc1ccnc(CCc2nc3cc(-c4ccc(S(=O)(=O)N5CCN(Cc6ccccc6)CC5)cc4)cnc3[nH]2)c1 [Compound 2] tested on human inducible NO-synthase (Homo sapiens, UniProt P35228); recorded IC50 was 35.5

Reported IC50 (human inducible NO-synthase (Homo sapiens, UniProt P35228)) for entry COc1ccnc(CCc2nc3cc(-c4ccc(S(=O)(=O)N5CCN(c6ccccc6)CC5)cc4)cnc3[nH]2)c1 [Compound 3] is 14.5

---

Below, each of the compounds is paired with its reported melting point value.

Example cases with answers are listed next.
CHEM SMILES	REPORTED ENDPOINT	OBSERVED MEASUREMENT
COc1ccnc(CCc2nc3cc(-c4ccc(S(=O)(=O)Nc5ccccc5OC)cc4)cnc3[nH]2)c1	melting point	215 to 216 °C
COc1ccnc(CCc2nc3cc(-c4ccc(S(=O)(=O)N5CCN(c6ccc(C)cc6)CC5)cc4)cnc3[nH]2)c1	melting point	150 to 154 °C
COc1ccnc(CCc2nc3cc(-c4ccc(S(=O)(=O)Nc5ccc(C)cc5)cc4)cnc3[nH]2)c1	melting point	219 to 220 °C
COc1ccnc(CCc2nc3cc(-c4ccc(S(=O)(=O)N5CCNC(=O)CC5)cc4)cnc3[nH]2)c1	melting point	230 to 232 °C
COc1ccnc(CCc2nc3cc(-c4ccc(S(=O)(=O)Nc5ccc(N(C)C)cc5)cc4)cnc3[nH]2)c1	melting point	221 to 222 °C

# compound COc1ccnc(CCc2nc3cc(-c4ccc(S(=O)(=O)N5CCN(c6ccc(C#N)cc6)CC5)cc4)cnc3[nH]2)c1 ; its melting point = 217 to 219 °C

Lab book: melting point of COc1ccnc(CCc2nc3cc(-c4ccc(S(=O)(=O)N5CCN(C(C)=O)CC5)cc4)cnc3[nH]2)c1 noted as 138 to 140 °C

---

The compounds listed here are annotated with their melting point.

COMPOUND	melting point
COc1ccnc(CCc2nc3cc(-c4ccc(S(=O)(=O)N5CCN(c6ccccc6)CC5)cc4)cnc3[nH]2)c1 [Compound 3]	218 to 220 °C
COc1ccnc(CCc2nc3cc(-c4ccc(S(=O)(=O)N5CCN(Cc6ccccc6)CC5)cc4)cnc3[nH]2)c1 [Compound 2]	160 to 162 °C
COc1ccnc(CCc2nc3cc(-c4ccc(S(=O)(=O)N5CCC(C(=O)c6ccccc6)CC5)cc4)cnc3[nH]2)c1 [Compound 13]	174 to 175 °C

melting point recorded for this compound, COc1ccnc(CCc2nc3cc(-c4ccc(S(=O)(=O)N5CCC(C)CC5)cc4)cnc3[nH]2)c1 [Compound 12] , is 186 to 188 °C

Query COc1ccnc(CCc2nc3cc(-c4ccc(S(=O)(=O)N(CCO)CCO)cc4)cnc3[nH]2)c1 [Compound 18] yields melting point of 127 to 128 °C

Note to self: melting point recorded for COc1ccnc(CCc2nc3cc(-c4ccc(S(=O)(=O)N5CCN(C)CC5)cc4)cnc3[nH]2)c1 [Compound 1] was 193 to 195 °C

Entry COc1ccnc(CCc2nc3cc(-c4ccc(S(=O)(=O)N5CCN(c6ccc(C)cc6C)CC5)cc4)cnc3[nH]2)c1 [Compound 6] , melting point reported as 208 to 209 °C

The reported value for COc1ccnc(CCc2nc3cc(-c4ccc(S(=O)(=O)N5CCC6(CC5)OCCO6)cc4)cnc3[nH]2)c1 [Compound 14] in terms of melting point is 121 to 122 °C

// COc1ccnc(CCc2nc3cc(-c4ccc(S(=O)(=O)N5CCc6cc(OC)c(OC)cc6C5)cc4)cnc3[nH]2)c1 [Compound 15] : melting point value = 207 to 208 °C

response.value for COc1ccnc(CCc2nc3cc(-c4ccc(S(=O)(=O)N(C)C)cc4C)cnc3[nH]2)c1 [Compound 23] (field: melting point) = 179 to 180 °C

Field melting point (entry COc1ccnc(CCc2nc3cc(-c4ccc(S(=O)(=O)NC5CCCCC5)cc4)cnc3[nH]2)c1 [Compound 20] ) reads 199 to 200 °C

Entry COc1ccnc(CCc2nc3cc(-c4ccc(S(=O)(=O)N5CCOCC5)cc4)cnc3[nH]2)c1 [Compound 10] , melting point reported as 210 to 212 °C

---

# TARGET OR SYSTEM: human inducible NO-synthase (Homo sapiens)
# RUN DESCRIPTION: Measurement of inducible NO-synthase activity ([3H]arginine conversion, crude cytosolic fraction)
# Type: biochemical
# SETTINGS: 0.1 μM arginine, 45 to 60 min at 37° C., pH 7.2; read-out: Inhibition of iNOS activity [measured as −logIC50 (mol/l)] (converted)
# Protocol: Measurement of Inducible NO-Synthase Activity The assay is performed in 96-well microtiter F-plates (Greiner, Frickenhausen, FRG) in a total volume of 100 μl in the presence of 100 nM calmodulin, 226 μM CaCl2, 477 μM MgCl2, 5 μM flavin-adenine-dinucleotide (FAD), 5 μM flavin mononucleotide (FMN), 0.1 mM NADPH, 7 mM glutathione, 10 μM BH4 and 100 mM HEPES pH 7.2. Arginine concentrations are 0.1 μM for enzyme inhibition experiments. […] Scintillation plates are counted in a scintillation counter. […]
Binarize IC50 at 50 nM; below is 1.0, at or above is 0.0.

Some solved cases for reference:
MOLECULE	ASSIGNED CATEGORY
COCCN1CCN(S(=O)(=O)c2ccc(-c3cnc4[nH]c(CCc5cc(OC)ccn5)nc4c3)cc2)CC1 [Compound 8]	1.0
COc1ccnc(CCc2nc3cc(-c4ccc(S(=O)(=O)N5CCN(c6ccc(C#N)cc6)CC5)cc4)cnc3[nH]2)c1 [Compound 4]	1.0
COc1ccnc(CCc2nc3cc(-c4ccc(S(=O)(=O)N(C)C)cc4C)cnc3[nH]2)c1 [Compound 23]	0.0
COc1ccnc(CCc2nc3cc(-c4ccc(S(=O)(=O)NCc5ccccc5)cc4)cnc3[nH]2)c1 [Compound 19]	1.0
COc1ccnc(CCc2nc3cc(-c4ccc(S(=O)(=O)N5CCN(c6ccc(C)cc6C)CC5)cc4)cnc3[nH]2)c1 [Compound 6]	0.0

Continue with the molecule presented below.
Is the reported IC50 for COc1ccnc(CCc2nc3cc(-c4ccc(S(=O)(=O)N5CCNC(=O)CC5)cc4)cnc3[nH]2)c1 [Compound 16] strictly below 50 nM? 1.0

---

# TARGET OR SYSTEM: human inducible NO-synthase (Homo sapiens, UniProt P35228)
# RUN DESCRIPTION: Measurement of inducible NO-synthase activity ([3H]arginine conversion, crude cytosolic fraction)
# Format: biochemical
# SETTINGS: 0.1 μM arginine, 45 to 60 min at 37° C., pH 7.2
In this section we review reported Inhibition of iNOS activity [measured as −logIC50] values for a set of compounds.

CHEM SMILES	OBSERVED MEASUREMENT
COc1ccnc(CCc2nc3cc(-c4ccc(S(=O)(=O)N(C)C)c(OC(F)(F)F)c4)cnc3[nH]2)c1	6.95
COc1ccnc(CCc2nc3cc(-c4ccc(S(=O)(=O)N5CCN(c6cc(Cl)cc(Cl)c6)CC5)cc4)cnc3[nH]2)c1	6.51
COc1ccnc(CCc2nc3cc(-c4ccc(S(=O)(=O)N(C)c5ccc(Cl)cc5)cc4)cnc3[nH]2)c1	7.41

Lookup result for COc1ccnc(CCc2nc3cc(-c4ccc(S(=O)(=O)N(C)C)c(C(F)(F)F)c4)cnc3[nH]2)c1 ; measured Inhibition of iNOS activity [measured as −logIC50]: 7

Values were extracted from patent US7709488B2.
